Catalogue of inhibition readings, one per entry.
- Target Or System: Perilipin-5 (Homo sapiens) + 1-acylglycerol-3-phosphate O-acyltransferase ABHD5 (Homo sapiens) (UniProt Q00G26+Q8WTS1)
- Sequence (Q00G26 whole entry, looked up): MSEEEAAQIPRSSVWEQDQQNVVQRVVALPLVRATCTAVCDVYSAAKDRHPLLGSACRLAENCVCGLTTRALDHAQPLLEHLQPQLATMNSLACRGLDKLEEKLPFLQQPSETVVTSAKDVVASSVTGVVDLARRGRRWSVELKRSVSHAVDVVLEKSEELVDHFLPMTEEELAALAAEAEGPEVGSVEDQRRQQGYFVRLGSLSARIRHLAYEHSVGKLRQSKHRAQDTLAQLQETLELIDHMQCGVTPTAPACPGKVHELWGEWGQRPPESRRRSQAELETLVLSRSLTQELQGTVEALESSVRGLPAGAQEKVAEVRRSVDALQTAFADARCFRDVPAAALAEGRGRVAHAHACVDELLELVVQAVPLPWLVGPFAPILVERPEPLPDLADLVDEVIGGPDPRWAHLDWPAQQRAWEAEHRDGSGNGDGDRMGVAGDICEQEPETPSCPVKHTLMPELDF
- Sequence (Q8WTS1 whole entry, looked up): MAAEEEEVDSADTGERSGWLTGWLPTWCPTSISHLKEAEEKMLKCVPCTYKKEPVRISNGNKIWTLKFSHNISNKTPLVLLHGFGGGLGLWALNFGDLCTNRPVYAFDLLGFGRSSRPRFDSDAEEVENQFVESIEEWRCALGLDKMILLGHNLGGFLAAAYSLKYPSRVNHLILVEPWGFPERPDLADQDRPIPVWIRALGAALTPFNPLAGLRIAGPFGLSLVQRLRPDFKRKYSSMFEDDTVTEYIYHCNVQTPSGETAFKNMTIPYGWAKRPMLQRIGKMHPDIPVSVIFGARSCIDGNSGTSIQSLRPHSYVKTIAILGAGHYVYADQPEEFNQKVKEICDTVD
- Assay Remarks: ABHD5-PLIN5 interaction inhibitors, pilot screen, cell lysate, split luciferase complementation, luminescence, NIH validation set (AID 493035);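 note: 0% = DMSO only wells while the 100% control is not stated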
- Condition Summary: split G. princeps luciferase complementation, lysates, 4 h, at 7.9 µM, hits give high values
The whole screen tested about 2,000 compounds, of which about 45 (2%) were called active. The sample holds actives, similar compounds and a random draw of the others, so the mix is not that of the screen.
Readout Kind: inhibition (%)

INSERT INTO assay_data (molecule, value_observed) VALUES
  ('CCN1CC2(COC(=O)c3ccccc3N)CCC(OC)C34C5CC6C(OC)CC(O)(C5C6OC)C(O)(C(OC)C23)C14 (configuration not stated)', 0.04),
  ('CC12CCC3C(CC=C4CC(O)CCC43C)C1C/C(=C\c1cccc(F)c1)C2=O (configuration not stated)', -0.83),
  ('O=C1C(=O)c2ccccc2-c2ccccc21', 69.8),
  ('CC(Cc1ccccc1)NCC(=O)Nc1cc(N(C)C)nc2ccccc12 (configuration not stated)', 2.7),
  ('S=C1NCCN1', -0.74),
  ('COP(=S)(OC)SCN1C(=O)c2ccccc2C1=O', 93.3),
  ('CC12CN3CC(c4ccccc4)(CN(C1)C31CCCCC1)C2=O', -2.32),
  ('Cc1nc2ccccc2c(=O)n1-c1ccc(C(=O)O)cc1', 7.89),
  ('CCOC(=O)c1cc2c(cn1)[nH]c1ccccc12', -11.3),
  ('C[N+](C)(C)Cc1ccccc1', -2.04),
  ('COc1ccc2c(c1)CC1(CN2C)C(=O)NC(=O)N(CCc2ccccc2)C1=O (configuration not stated)', 3.64),
  ('COc1ccc(-c2nc3ccccc3c(=O)o2)cc1', -1.16);
